- targetEntity: human IP6K1 (Homo sapiens, UniProt Q92551)
- Construct: human IP6K1 (1-441) gene; GST; made in house; host or cells: Sf-9 insect cells
- Sequence (Q92551 whole entry): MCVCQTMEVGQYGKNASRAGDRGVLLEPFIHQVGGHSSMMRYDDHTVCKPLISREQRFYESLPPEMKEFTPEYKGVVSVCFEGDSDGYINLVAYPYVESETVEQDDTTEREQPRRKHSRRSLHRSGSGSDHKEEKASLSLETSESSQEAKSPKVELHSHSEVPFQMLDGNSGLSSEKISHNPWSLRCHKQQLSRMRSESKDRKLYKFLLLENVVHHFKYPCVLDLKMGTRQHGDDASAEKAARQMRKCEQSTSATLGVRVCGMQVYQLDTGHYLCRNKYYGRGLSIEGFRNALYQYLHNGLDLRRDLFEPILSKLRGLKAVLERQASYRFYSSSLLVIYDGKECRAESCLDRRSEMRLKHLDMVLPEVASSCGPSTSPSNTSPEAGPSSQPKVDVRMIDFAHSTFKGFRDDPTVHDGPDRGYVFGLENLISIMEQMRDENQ
- protocolSummary: IP6K enzyme inhibitory assay (ADP-Glo Kinase Assay), human IP6K1
- Format: biochemical
- conditionContext: compound concentration 0.1 μM; read-out: ADP-Glo method inhibitory rate (%) human IP6K1
quantityMeasured: inhibition at 0.1 µM (%)

N#Cc1ccccc1O[C@H]1CC[C@@]2(CC1)C(=O)Nc1ccc(C(=O)O)cc12 88
O=C(O)c1ccc2c(c1)[C@]1(CC[C@@H](Oc3ccccc3Cl)CC1)C(=O)N2 95
O=C(O)c1ccc2c(c1)[C@]1(CC[C@H](Oc3ncc(F)cc3F)CC1)C(=O)N2 100
Cc1cc(C)nc(O[C@H]2CC[C@@]3(CC2)C(=O)Nc2ccc(C(=O)O)cc23)n1 55
Cc1cc(O[C@H]2CC[C@@]3(CC2)C(=O)Nc2ccc(C(=O)O)cc23)nc(C)n1 14

[P] O=C(O)c1ccc2c(c1)[C@]1(CC[C@@H](Oc3ccccn3)CC1)C(=O)N2
[Q] Cc1ccc(O[C@H]2CC[C@@]3(CC2)C(=O)Nc2ccc(C(=O)O)cc23)c(F)c1
[R] Cc1cc(Cl)cc(C)c1O[C@H]1CC[C@]2(CC1)C(=O)Nc1ccc(C(=O)O)nc12
Sequence the entries by inhibition at 0.1 µM, beginning with the highest number. Form field (ranking): labels in requested order.
Q, P, R

[P] O=C(O)c1ccc2c(n1)[C@]1(CC[C@H](Oc3ccc(Cl)cc3C(F)(F)F)CC1)C(=O)N2
[Q] O=C(O)c1ccc2c(n1)[C@]1(CC[C@@H](Oc3ncc(Cl)cc3C(F)(F)F)CC1)C(=O)N2
# returns the entry with the larger inhibition at 0.1 µM; inputs P and Q Mark your answer with the label of the selected entry.
P

###

- targetEntity: human IP6K1 (Homo sapiens, UniProt Q92551)
- Construct: human IP6K1 (1-441) gene; GST; made in house; host or cells: Sf-9 insect cells
- protocolSummary: IP6K enzyme inhibitory assay (ADP-Glo Kinase Assay), human IP6K1
- Assay type: biochemical
- conditionContext: compound concentration 0.1 μM; read-out: ADP-Glo method inhibitory rate (%) human IP6K1
quantityMeasured: inhibition at 0.1 µM (%)

Cc1cc(Cl)cnc1O[C@H]1CC[C@@]2(CC1)C(=O)Nc1ccc(C(=O)O)nc12 92
O=C(O)c1ccc2c(c1)[C@]1(CC[C@@H](Oc3ccc(C(F)(F)F)cn3)CC1)C(=O)N2 95
Cc1c(Cl)cnc(O[C@H]2CC[C@]3(CC2)C(=O)Nc2ccc(C(=O)O)nc23)c1C#N 96
O=C(O)c1ccc2c(c1)[C@]1(CC[C@@H](Oc3cccc(F)c3F)CC1)C(=O)N2 87
N#Cc1ccc(O[C@H]2CC[C@@]3(CC2)C(=O)Nc2ccc(C(=O)O)cc23)cc1F 100
O=C(O)c1ccc2c(n1)[C@]1(CC[C@@H](Oc3ccc(Cl)cc3Cl)CC1)C(=O)N2 105
O=C(O)c1ccc2c(c1)[C@]1(CC[C@H](Oc3ncc(Cl)cc3F)CC1)C(=O)N2 107

###

- targetEntity: human IP6K3 (Homo sapiens)
- Construct: human IP6K3 (1-410) gene; made in house; host or cells: BL21 (DE3) Escherichia coli
- Sequence (Q96PC2 whole entry): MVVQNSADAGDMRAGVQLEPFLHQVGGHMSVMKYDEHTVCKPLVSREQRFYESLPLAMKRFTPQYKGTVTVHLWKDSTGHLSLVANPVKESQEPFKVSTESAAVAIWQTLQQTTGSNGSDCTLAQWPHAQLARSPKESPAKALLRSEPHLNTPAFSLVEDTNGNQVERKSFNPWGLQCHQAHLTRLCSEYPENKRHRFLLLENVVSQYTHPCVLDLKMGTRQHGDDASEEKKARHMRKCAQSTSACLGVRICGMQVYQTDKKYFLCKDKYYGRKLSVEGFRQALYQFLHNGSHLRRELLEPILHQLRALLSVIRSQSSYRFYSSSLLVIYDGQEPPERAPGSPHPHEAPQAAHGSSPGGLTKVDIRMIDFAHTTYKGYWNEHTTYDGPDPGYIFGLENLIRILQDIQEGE
- protocolSummary: IP6K enzyme inhibitory assay (ADP-Glo Kinase Assay), human IP6K3
- Type: biochemical
- conditionContext: compound concentration 0.1 μM; read-out: ADP-Glo method inhibitory rate (%) human IP6K3
- Protocol: IP6K Enzyme Inhibitory Assay Human IP6K3 enzyme was prepared by transducing human IP6K3 (1-410) gene into BL21 (DE3) Escherichia coli and purifying by Ni-NTA (nickel-nitrilotriacetic acid) affinity column. […] The IP6K enzyme inhibitory activity of the test compound was measured by the following experiment method and using ADP-Glo™ Kinase Assay (manufactured by Promega). […] After the reaction, the luminescence intensity was measured by a plate reader Envision (manufactured by PerkinElmer).
quantityMeasured: inhibition at 0.1 µM (%)

N#Cc1ccc(O[C@H]2CC[C@@]3(CC2)C(=O)Nc2ccc(C(=O)O)cc23)c(Cl)c1 97
Cc1c(Cl)cnc(O[C@H]2CC[C@]3(CC2)C(=O)Nc2ccc(C(=O)O)nc23)c1C#N 95
O=C(O)c1ccc2c(n1)[C@]1(CC[C@H](Oc3ccc(F)cc3F)CC1)C(=O)N2 91
O=C(O)c1ccc2c(c1)[C@]1(CC[C@@H](Oc3ccc(C(F)(F)F)cn3)CC1)C(=O)N2 98
O=C(O)c1ccc2c(c1)[C@]1(CC[C@H](Oc3ncc(Cl)cc3F)CC1)C(=O)N2 102
O=C(O)c1ccc2c(c1)[C@]1(CC[C@@H](Oc3ccccn3)CC1)C(=O)N2 70
O=C(O)c1ccc2c(c1)[C@]1(CC[C@@H](Oc3ccc(F)cn3)CC1)C(=O)N2 90
Cc1ccccc1O[C@H]1CC[C@@]2(CC1)C(=O)Nc1ccc(C(=O)O)cc12 98
O=C(O)c1ccc2c(n1)[C@]1(CC[C@H](Oc3ncc(C4CC4)cc3Cl)CC1)C(=O)N2 98
COc1ccc(O[C@H]2CC[C@@]3(CC2)C(=O)Nc2ccc(C(=O)O)cc23)cc1 100
O=C(O)c1ccc2c(c1)[C@]1(CC[C@@H](Oc3cc(F)ccc3Cl)CC1)C(=O)N2 97
N#Cc1cc(Cl)cnc1O[C@H]1CC[C@]2(CC1)C(=O)Nc1ccc(C(=O)O)nc12 96
COc1cc(Cl)ccc1O[C@H]1CC[C@]2(CC1)C(=O)Nc1ccc(C(=O)O)cc12 102
N#Cc1cccc(O[C@H]2CC[C@@]3(CC2)C(=O)Nc2ccc(C(=O)O)cc23)c1F 98
Cc1cc(C)cc(O[C@H]2CC[C@@]3(CC2)C(=O)Nc2ccc(C(=O)O)cc23)c1 97
O=C(O)c1ccc2c(c1)[C@]1(CC[C@H](Oc3cc(F)cnc3F)CC1)C(=O)N2 94
O=C(O)c1ccc2c(c1)[C@]1(CC[C@@H](Oc3ccc(F)cc3Cl)CC1)C(=O)N2 98
O=C(O)c1ccc2c(c1)[C@]1(CC[C@@H](Oc3ncccc3Cl)CC1)C(=O)N2 92
Cc1ccc(O[C@H]2CC[C@@]3(CC2)C(=O)Nc2ccc(C(=O)O)cc23)cn1 91
O=C(O)c1ccc2c(c1)[C@]1(CC[C@@H](Oc3cc(C(F)(F)F)ccc3F)CC1)C(=O)N2 98
N#Cc1cc(Cl)ccc1O[C@H]1CC[C@@]2(CC1)C(=O)Nc1ccc(C(=O)O)cc12 86
O=C(O)c1ccc2c(c1)[C@]1(CC[C@@H](Oc3cc(OCc4ccccc4)ccn3)CC1)C(=O)N2 97
Cc1ccc(O[C@H]2CC[C@@]3(CC2)C(=O)Nc2ccc(C(=O)O)cc23)c(C)n1 98
Cc1cccnc1O[C@H]1CC[C@@]2(CC1)C(=O)Nc1ccc(C(=O)O)cc12 96

###

- targetEntity: human IP6K2 (Homo sapiens, UniProt Q9UHH9)
- Construct: human IP6K2 (1-426) gene; GST; made in house; host or cells: Sf-9 insect cells
- Sequence (Q9UHH9 1-426): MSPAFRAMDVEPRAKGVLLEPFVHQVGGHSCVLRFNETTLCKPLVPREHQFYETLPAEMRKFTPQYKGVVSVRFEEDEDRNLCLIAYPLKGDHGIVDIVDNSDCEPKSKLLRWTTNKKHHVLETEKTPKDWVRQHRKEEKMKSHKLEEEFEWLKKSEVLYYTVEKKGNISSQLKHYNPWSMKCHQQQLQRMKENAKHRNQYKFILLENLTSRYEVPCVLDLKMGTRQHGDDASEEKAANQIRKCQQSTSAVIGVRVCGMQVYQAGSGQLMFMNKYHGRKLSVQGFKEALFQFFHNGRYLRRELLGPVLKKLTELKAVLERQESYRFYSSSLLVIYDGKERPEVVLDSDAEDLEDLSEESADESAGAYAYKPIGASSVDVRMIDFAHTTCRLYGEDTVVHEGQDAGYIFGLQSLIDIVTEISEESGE
- protocolSummary: IP6K enzyme inhibitory assay (ADP-Glo Kinase Assay), human IP6K2
- Type: biochemical
- conditionContext: compound concentration 0.1 μM; read-out: ADP-Glo method inhibitory rate (%) human IP6K2
quantityMeasured: inhibition at 0.1 µM (%)

O=C(O)c1ccc2c(c1)[C@]1(CC[C@@H](Oc3cnc4c(c3)CCCO4)CC1)C(=O)N2 50
Cc1cccc(O[C@H]2CC[C@@]3(CC2)C(=O)Nc2ccc(C(=O)O)cc23)c1F 96
Cc1ncccc1O[C@H]1CC[C@@]2(CC1)C(=O)Nc1ccc(C(=O)O)cc12 67
Cc1ccc(O[C@H]2CC[C@@]3(CC2)C(=O)Nc2ccc(C(=O)O)cc23)cc1 99
O=C(O)c1ccc2c(c1)[C@]1(CC[C@@H](Oc3ncc(C4CC4)cc3C(F)(F)F)CC1)C(=O)N2 101

[I] O=C(O)c1ccc2c(c1)[C@]1(CC[C@@H](Oc3ccc(Cl)cc3Cl)CC1)C(=O)N2
[II] O=C(O)c1ccc2c(c1)[C@]1(CC[C@@H](Oc3ccccn3)CC1)C(=O)N2
[III] Cc1cc(O[C@H]2CC[C@@]3(CC2)C(=O)Nc2ccc(C(=O)O)cc23)nc(C)n1
// ranking: key=inhibition at 0.1 µM, reverse=True Provide the labels, sequenced as the question asks.
I, II, III

[A] O=C(O)c1ccc2c(c1)[C@]1(CC[C@H](Oc3ncc(Cl)cc3F)CC1)C(=O)N2
[B] O=C(O)c1ccc2c(n1)[C@]1(CC[C@H](Oc3ccc(F)cc3F)CC1)C(=O)N2
Pick one: A or B . Which has the bigger inhibition at 0.1 µM number? Lab log: write the label of the selected item as the result.
A
(A: 102%, B: 59%)
